Overview of reported Ratio Ki across a group of compounds:
Species on record: Cavia porcellus
Method description: Selectivity for guinea pig delta8-delta7 sterol isomerase (SI) site over guinea pig sigma 1 receptor
Recorded endpoint: Ratio Ki

Compound | Numeric readout
COc1ccc2c(c1)CCCC2CCCCN1CCC(C)(C)CC1 (configuration not stated) | 14
COc1ccc2c(CCCN3CCC(C)(C)CC3)cccc2c1 | 6.1
COc1ccc2c(CCCCN3CCC[C@@H](C)C3)cccc2c1 | 61
COc1ccc2c(c1)CCCC2CCCCN1CCCCC1 (configuration not stated) | 3.5
COc1ccc2c(c1)CCCC2CCCCN1CCC(C)CC1 (configuration not stated) | 13
COc1ccc2c(c1)CCCC2CCCN1CCCCC1 (configuration not stated) | 15
COc1ccc2c(CCCN3CCCC[C@@H]3C)cccc2c1 | 6.6
COc1ccc2c(c1)CCCC2CCCN1CCCCC1(C)C (configuration not stated) | 0.1
COc1ccc2c(CCCN3CCC[C@H](C)C3)cccc2c1 | 1
COc1ccc2c(CCCN3CCCC[C@H]3C)cccc2c1 | 6.1
COc1ccc2c(CCCCN3CCCCC3)cccc2c1 | 17
COc1ccc2c(c1)CCCC2CCCCN1CCCCC1(C)C (configuration not stated) | 1.4

---

Overview of reported Ki across a group of compounds:
Target system: Sigma 2 receptor
Method description: Displacement of [3H]DTG from sigma 2 receptor in rat liver membranes

Compound | Ki, nM
COc1ccc2c(c1)CCCC2CCCCN1CCC(C)CC1 (stereo not given) | 36.3
COc1ccc2c(CCCN3CCCCC3(C)C)cccc2c1 | 94
COc1ccc2c(CCCCN3CCCC[C@H]3C)cccc2c1 | 49.2
COc1ccc2c(c1)CCCC2CCCN1CCC(C)CC1 (stereo not given) | 31.4
CCCN(CCC)CCc1ccc(OC)c(OCCc2ccccc2)c1 | 212

---

Target system: 3-beta-hydroxysteroid-Delta(8),Delta(7)-isomerase (Cavia porcellus)
Sequence (Q60490 whole entry): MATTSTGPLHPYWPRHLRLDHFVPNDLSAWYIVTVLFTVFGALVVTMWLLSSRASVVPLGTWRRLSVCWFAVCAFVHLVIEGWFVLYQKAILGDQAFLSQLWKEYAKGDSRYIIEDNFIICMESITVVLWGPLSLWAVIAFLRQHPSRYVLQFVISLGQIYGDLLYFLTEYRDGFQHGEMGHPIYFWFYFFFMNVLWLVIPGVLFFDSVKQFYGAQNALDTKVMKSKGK
Method description: Displacement of [3H](+/-)-emopamil from delta8-delta7 sterol isomerase (SI) site in guinea pig liver membranes
pKi: −log10 of the molar value.
Overview of reported pKi across a group of compounds:

Chemical string | pKi
COc1ccc2c(CCCN3CCCCC3(C)C)cccc2c1 | 7.83
COc1ccc2c(CCCN3CCC[C@H](C)C3)cccc2c1 | 8.47
COc1ccc2c(CCCN3CCC[C@@H](C)C3)cccc2c1 | 7.71

---

Target system: Sigma non-opioid intracellular receptor 1 (Cavia porcellus) (UniProt Q60492)
Sequence (Q60492 whole entry): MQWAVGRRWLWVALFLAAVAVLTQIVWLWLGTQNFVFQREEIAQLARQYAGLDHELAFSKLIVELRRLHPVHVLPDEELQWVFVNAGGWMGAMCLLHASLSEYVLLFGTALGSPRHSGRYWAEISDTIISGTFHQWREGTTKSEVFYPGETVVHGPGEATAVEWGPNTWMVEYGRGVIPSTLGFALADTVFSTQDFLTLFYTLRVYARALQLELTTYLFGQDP
Method description: […] rat sigma 2 receptor over guinea pig sigma 1 receptor
Overview of reported Ratio Ki across a group of molecules:

Molecule | Ratio Ki
COc1ccc2c(c1)CCCC2CCCCN1CCC(C)CC1 (stereo not drawn) | 86
COc1ccc2c(c1)CCCC2CCCN1CCC(C)(C)CC1 (stereo not drawn) | 27
COc1ccc2c(CCCCN3CCCCC3(C)C)cccc2c1 | 1.3
COc1ccc2c(CCCCN3CCCC[C@@H]3C)cccc2c1 | 108
COc1ccc2c(CCCCN3CCC(C)CC3)cccc2c1 | 597
COc1ccc2c(CCCN3CCCCC3)cccc2c1 | 22
COc1ccc2c(CCCN3CCC(C)CC3)cccc2c1 | 26
COc1ccc2c(CCCN3CCC[C@@H](C)C3)cccc2c1 | 45
